tested on: SU-DHL-10 cells; experiment: Medium throughput combination proliferation assay (CellTiter-Glo, Chou-Talalay CI / potency shift); conditions: SU-DHL10 (EZH2 Mutant GCB); drug combined with Compound 44
Outcome measure: Summary of Combinations with Compound 44

Previously resolved entries follow.
smiles_representation=CC[C@]1(O)C[C@H]2CN(CCc3c([nH]c4ccccc34)[C@@](C(=O)OC)(c3cc4c(cc3OC)N(C=O)[C@H]3[C@@](O)(C(=O)OC)[C@H](OC(C)=O)[C@]5(CC)C=CCN6CC[C@]43[C@@H]65)C2)C1 measurement_target="SU-DHL-10 cells" outcome_measure="Summary of Combinations with Compound 44" experimental_result=Additive
smiles_representation=CO[C@H]1C[C@@H]2CC[C@@H](C)[C@@](O)(O2)C(=O)C(=O)N2CCCC[C@H]2C(=O)O[C@H]([C@H](C)C[C@@H]2CC[C@@H](OCCO)[C@H](OC)C2)CC(=O)[C@H](C)/C=C(\C)[C@@H](O)[C@@H](OC)C(=O)[C@H](C)C[C@H](C)/C=C/C=C/C=C/1C measurement_target="SU-DHL-10 cells" outcome_measure="Summary of Combinations with Compound 44" experimental_result="very strong synergy"
smiles_representation=CC[C@H](Nc1ncnc2[nH]cnc12)c1nc2cccc(F)c2c(=O)n1-c1ccccc1 measurement_target="SU-DHL-10 cells" outcome_measure="Summary of Combinations with Compound 44" experimental_result="very strong synergy"
smiles_representation=COc1cccc2c1C(=O)c1c(O)c3c(c(O)c1C2=O)C[C@@](O)(C(=O)CO)C[C@@H]3O[C@H]1C[C@H](N)[C@H](O)[C@H](C)O1 measurement_target="SU-DHL-10 cells" outcome_measure="Summary of Combinations with Compound 44" experimental_result=Additive

For each of the items listed, what is its Summary of Combinations with Compound 44?
1. COc1cc(Nc2ncc(F)c(Nc3ccc4c(n3)NC(=O)C(C)(C)O4)n2)cc(OC)c1OC
2. NC1(c2ccc(-c3nc4ccn5c(=O)[nH]nc5c4cc3-c3ccccc3)cc2)CCC1

Return:
["very strong synergy", "very strong synergy"]
